# Tested on: HCC-2998 colon
# ASSAY_PROTOCOL: NCI-60 one-dose screen, 48 h
# ASSAY_CONDITIONS: 10 µM unless noted
This is part of a sample that, as a whole, favours compounds with a hit. Of some 83,000 tested, about 20% had one in any assay. Activity calls are given as the source filed them. The calls were made as follows: active = growth percent below 10; inactive = the rest.
Labels: active, inactive

{"columns": ["COMPOUND", "LABEL_VALUE"],
 "data": [
  ["COc1ccc(C(=O)Nc2ncc(Cc3ccc(Cl)cc3)s2)cc1", "active"],
  ["Cc1nc2sc(C(=O)Nc3cccc4ccccc34)c(N)c2cc1C(=O)c1ccccc1", "inactive"],
  ["C=C(C)[C@@H]1CC[C@]2(C(=O)N3CCNCC3)CC[C@]3(C)[C@H](CC[C@@H]4[C@@](C)(CCC(=O)N5CCNCC5)[C@H](C(=C)C)CC[C@]43C)[C@@H]12", "inactive"],
  ["Fc1ccc(/C=C/[C@@H]2C[C@@H](F)CCO2)cc1", "inactive"],
  ["CCOC(=O)C1=C(c2ccccc2)N=C2N(c3ccccc3)N=C(C(C)=O)N2C1c1ccc(F)cc1 (centres undefined)", "inactive"],
  ["CCN(CC)CCOc1ccc(C(=O)/C=C\\c2ccc(Cl)cc2Cl)cc1", "inactive"],
  ["O=c1cc(CP(=O)(O)O)c2cc(O)c(-c3ccccc3)cc2o1", "inactive"],
  ["COc1cc(/C=C2\\C(=O)N(CCCOc3cc(O)c4c(=O)cc(-c5ccccc5)oc4c3)c3ccccc32)cc(OC)c1O", "inactive"],
  ["C/C=C1/CN(CCCCC)CC[C@H]1C(=O)c1cc2ccccc2[nH]1", "inactive"]
]}
